Test system: MARV-GP/HIV-luc pseudovirus
METHOD_DESCRIPTION: microbe, parasite or virus in culture
Format: cell-based
CONDITION: read-out: EC50 against the Marburg virus entering the host
Counter-ions that a name gives are not always drawn.
RECORDED_METRIC: EC50
Units required after the number.

State the recorded EC50 for this entry: COc1cc2c3cc1Oc1c(OC)c(OC)cc4c1[C@@H](Cc1ccc(O)c(c1)Oc1ccc(cc1)C[C@@H]3N(C)CC2)N(C)CC4 [berbamine dihydrochloride]
990 nM

----------
Test system: EBOV-Zaire GP/HIV-luc pseudovirus
METHOD_DESCRIPTION: organism not typed
Type: cell-based, Zaire ebolavirus
CONDITION: HEK-293T, read-out: half-maximum effect concentration (EC50) against EBOV
Counter-ions that a name gives are not always drawn.
RECORDED_METRIC: EC50 (nM)
One number for each entry, in nM.

State the recorded EC50 for this entry: COc1cc2c3cc1Oc1c(OC)c(OC)cc4c1[C@@H](Cc1ccc(O)c(c1)Oc1ccc(cc1)C[C@@H]3N(C)CC2)N(C)CC4 [berbamine dihydrochloride]
490

----------
Test system: LASV-GP/HIV-luc pseudovirus
METHOD_DESCRIPTION: organism not typed
Format: cell-based
CONDITION: read-out: EC50 against the Lassa virus entering the host
Where a name gives a salt, the structure may show the parent alone.
RECORDED_METRIC: EC50 (µM)
One number for each entry, in µM.

State the recorded EC50 for this entry: COc1cc2c3cc1Oc1c(OC)c(OC)cc4c1[C@@H](Cc1ccc(O)c(c1)Oc1ccc(cc1)C[C@@H]3N(C)CC2)N(C)CC4 [berbamine dihydrochloride]
2.64
